Each recorded value in this set is attributed to patent US20100278834A1.

biological target: hemagglutinin of A/Vietnam/1203/04 (H5N1) (influenza A virus A/Vietnam/1203/04 (H5N1)); experiment: cell-based or functional assay
Assign labels as follows, please: yes (1) for IC50, neutralisation of retroviral pseudotypes below 10 ng/mL; no (0) for IC50, neutralisation of retroviral pseudotypes equal to or exceeding 10 ng/mL.

Binder	Label Value
FLD20.19 (antibody, V domains shown) VH: QVQLVQSGAEVKKPGSSVTVSCKASGGTFSNYGISWVRQAPGQGLDWMGGIIPLFGTANYAQKFQGRVTITADESTSSSNMELSSLRSEDTAVYYCARDVHNYDFLTGYPLHLYGMDVWGQGTTVTVSS VL: DIQMTQSPSSLSASVGDRVTITCRASQSISTYLNWYQQKPGIPPKLLINVASSLQSGVPSRFSGSGSGTDFTLTISSLQPEDFASYYCQQTYSSPPTFGQGTKVEIK	no (0)
FLA5.10 (antibody, V domains shown) VH: QVQLVQSGAEVKEPGSAMKVSCKASGGTFSSDAFCWVRQAPGRGLEWMGGIIPVFQTANYGPNFQGRVTISADVYTTTLYLELSGLTSEDTAVYFCARSGDGYNYYFPLWGQGTLVTVSS VL: DIQMTQSPSTLSGSVGDRVTITCRASQNIGPWLAWYQQESGKAPKLLISRASILESGVPSRFSGTGTGTEFTLTISSLQPDDFATYYCQHYNAYWGTFGQGTKVEIN	no (0)
FLD127 (antibody, V domains shown) VH: QVQLVESGGGVVQPGRSLRLSCAASGFTFSSYGMHWVRQAPGKGLEWVAVIWYDGDNKYYGDSVKGRFTISRDNSKNTLFLQMNSLRAEDTAVYYCAKDTADHGDYVDLGFFDAWGQGTLVTVSS VL: DIQMTQSPSSVSASVGDRVTITCRASQDVSTWLAWYQLKPGKAPKLLIYAASSLQSGVPSRFSGSGSGTDFTLTVSSLQPEDFATYYCQQANSFPFTFGPGTKVDIK	no (0)
FLD84 (antibody, V domains shown) VH: QVQLQESGPGLVKPSETLSLICAVSGASISSSYWSWIRQPPGKGLEWIGYIYYSGVTKYNPSLKSRVTLSVDTSKNHFSLKLSYVTAADTAVYYCARNLPDIAVVTAVQDATPVWFDPWGPGTLVSVSS VL: DIQLTQSPSSLSASVGDRVTITCRASQGIITYLNWYQQKPGKAPKLLIYATYSLQNGVPSRFSGSGSGTDFTLTISSLQPEDFATYYCQQSYSSLMFTFGQGTKLDIK	no (0)
FLD129 (antibody, V domains shown) VH: EVQLVESGGGLVQPGRSLRLSCAASGFTFSDFWMSWVRQAPGKGLEWVANIDQDGNERFYADSVKGRFTISRDNAKNSLYLQMTSLRADDTAVYYCARDGREGYFYGSGSFYNLKGLNWGQGTLLTVSS VL: QSVLTQPPSVSAAPGQRVTISCSGTSSNIGKNYVSWYQQLPGAAPKLLIYDNDKRPSGIPDRFSGSKSGTSATLGITGLQTGDEADYYCGTWDSSLSVGMFGGGTRLTVL	yes (1)
FLD132 (antibody, V domains shown) VH: EVQLVQSGAELKMPGESLKISCKASGYTFTNYWIGWVRQTPGKGLEWMGIIFPPDSQTSYSPSFQGQVTFSVDNSISVAYIQWSSLKASDTAIYYCARSGIFDWSAPLVEAFDIWGQGTVVTVSS VL: DIQLTQSPSFLSASVGDGVTITCRASQDIYIYLAWYQQKPGKAPKLLIYAASTLQGGVPSRFSGSGSGTEFTLTINNLQPEDFATYFCQQLNGYPLTFGGGTKVEIK	yes (1)
